Target: hDGAT-1 (Homo sapiens, UniProt O75907)
Construct: host or cells: Sf9 insect cells (baculovirus); microsomal fraction
Sequence (O75907 whole entry): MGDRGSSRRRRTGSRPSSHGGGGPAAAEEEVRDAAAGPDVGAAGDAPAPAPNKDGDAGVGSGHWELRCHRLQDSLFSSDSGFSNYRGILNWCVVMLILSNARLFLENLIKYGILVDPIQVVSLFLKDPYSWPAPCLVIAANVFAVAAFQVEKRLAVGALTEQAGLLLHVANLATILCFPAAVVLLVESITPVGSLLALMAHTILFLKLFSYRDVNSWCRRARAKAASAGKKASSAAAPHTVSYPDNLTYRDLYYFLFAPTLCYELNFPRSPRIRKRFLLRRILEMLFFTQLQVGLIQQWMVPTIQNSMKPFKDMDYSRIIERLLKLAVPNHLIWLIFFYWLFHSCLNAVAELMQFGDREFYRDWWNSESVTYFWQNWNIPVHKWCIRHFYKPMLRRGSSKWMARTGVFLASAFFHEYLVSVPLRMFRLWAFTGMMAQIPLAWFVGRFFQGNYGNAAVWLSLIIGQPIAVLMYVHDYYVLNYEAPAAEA
Test: In-vitro DGAT-1 assay (14C oleoyl CoA, microsomes from Sf9 cells)
Assay type: biochemical
Conditions: 1 μM compound; hDGAT-1 containing microsomes from Sf9 cells
Hi there, I'd appreciate the recorded inhibition at 1 µM for every entry that follows.

Q: Entry CC(C)C(NC(=O)c1ncc(-c2ccc(NC(=O)Nc3ccc(Cl)cc3Oc3ccccc3)cc2)o1)C(=O)O (stereo not drawn) : reported inhibition at 1 µM = ?
Result: 50 to 100%

Q: Field entry: CC(C)[C@H](NC(=O)c1ncc(-c2ccc(NC(=O)Nc3ccc4c(c3)CCC4)cc2)o1)C(=O)O
Result: 50 to 100%

Q: Field entry: CC(C)C(NC(=O)c1nc(-c2ccc(NS(=O)(=O)c3ccc(Cl)cc3Cl)cc2)cs1)C(=O)O (stereo not drawn)
Result: 0 to 50%

Q: Field entry: Cc1ccc(NC(=O)Nc2ccc(-c3csc(C(=O)NC(C(=O)O)C(C)C)n3)cc2)cc1C (stereo not drawn)
Result: 0 to 50%

Q: Field entry: CCCCCc1ccc(C(=O)Nc2ccc(-c3cnc(C(=O)N(C)C(C(=O)O)C(C)C)s3)cc2)cc1 (stereo not drawn)
Result: 50 to 100%

Q: Field entry: CC(C)[C@H](NC(=O)c1ncc(-c2ccc(NC(=O)Nc3ccc(C(F)(F)F)cc3Cl)cc2)o1)C(=O)O
Result: 50 to 100%

Q: Field entry: CC(C)C(NC(=O)c1ncc(-c2ccc(N(Cc3ccccc3)Cc3ccccc3)cc2)s1)C(=O)O (stereo not drawn)
Result: 0 to 50%

Q: Field entry: CCCCCc1ccc(C(=O)Nc2ccc(-c3csc(C(=O)NC(C(=O)O)C(C)C)n3)cc2)cc1 (stereo not drawn)
Result: 0 to 50%

Q: Field entry: CC(C)[C@H](NC(=O)c1ncc(-c2ccc(NC(=O)Nc3ccc(Cl)cc3F)cc2)s1)C(=O)O
Result: 50 to 100%

Q: Field entry: CC(C)C(NC(=O)c1nc(-c2ccc(NC(=O)Nc3ccc(Cl)cc3Oc3ccccc3)cc2)cs1)C(=O)O (stereo not drawn)
Result: 0 to 50%

Q: Field entry: CC(C)C(NC(=O)c1nc(-c2ccc(NC(=O)Nc3ccc(C(F)(F)F)cc3)cc2)cs1)C(=O)O (stereo not drawn)
Result: 0 to 50%

Q: Field entry: Cc1ccc(NC(=O)Nc2ccc(-c3cnc(C(=O)NC(C(=O)O)C(C)C)o3)cc2)cc1C (stereo not drawn)
Result: 50 to 100%

Q: Field entry: CC(C)C(NC(=O)c1ncc(-c2ccc(NC(=O)Nc3ccccc3Cl)cc2)o1)C(=O)O (stereo not drawn)
Result: 50 to 100%

Q: Field entry: CC(C)[C@H](NC(=O)c1ncc(-c2ccc(NC(=O)Nc3ccc(C(F)(F)F)cc3Cl)cc2)s1)C(=O)O
Result: 50 to 100%

Q: Field entry: CC(C)[C@H](NC(=O)c1ncc(-c2ccc(NC(=O)Nc3ccc(Cl)cc3F)cc2)o1)C(=O)O
Result: 50 to 100%

Q: Field entry: CC(C)C(NC(=O)c1ncc(-c2ccc(NC(=O)C3Cc4ccccc4C3)cc2)s1)C(=O)O (stereo not drawn)
Result: 50 to 100%

Q: Field entry: CC(C)C(NC(=O)c1ncc(-c2ccc(NCc3ccc(F)cc3)cc2)s1)C(=O)O (stereo not drawn)
Result: 0 to 50%

Q: Field entry: CC(C)[C@H](NC(=O)c1ncc(-c2ccc(NC(=O)Nc3ccc(Cl)cc3)cc2)s1)C(=O)O
Result: 50 to 100%

Q: Field entry: CC(C)[C@H](NC(=O)c1ncc(-c2ccc(NC(=O)Nc3cccc(Cl)c3)cc2)s1)C(=O)O
Result: 50 to 100%

Q: Field entry: CC(C)C(NC(=O)c1nc(-c2ccc(NC(=O)c3ccc(C(C)(C)C)cc3)cc2)cs1)C(=O)O (stereo not drawn)
Result: 0 to 50%

Q: Field entry: CC(C)C(NC(=O)c1nc(-c2ccc(NC(=O)Nc3ccccc3Cl)cc2)cs1)C(=O)O (stereo not drawn)
Result: 0 to 50%

Q: Field entry: CC(C)[C@H](NC(=O)c1ncc(-c2ccc(NC(=O)Nc3ccc(Cl)cc3)cc2)o1)C(=O)O
Result: 50 to 100%

Q: Field entry: CC(C)C(NC(=O)c1ncc(-c2ccc(NC(=O)Nc3cccc(C(F)(F)F)c3)cc2)o1)C(=O)O (stereo not drawn)
Result: 50 to 100%

Q: Field entry: CC(C)C(C(=O)O)N(C)C(=O)c1ncc(-c2ccc(NC(=O)c3ccc(C(C)(C)C)cc3)cc2)s1 (stereo not drawn)
Result: 50 to 100%
